studySystem: μ-receptor (Homo sapiens, UniProt P35372)
Sequence (P35372 whole entry): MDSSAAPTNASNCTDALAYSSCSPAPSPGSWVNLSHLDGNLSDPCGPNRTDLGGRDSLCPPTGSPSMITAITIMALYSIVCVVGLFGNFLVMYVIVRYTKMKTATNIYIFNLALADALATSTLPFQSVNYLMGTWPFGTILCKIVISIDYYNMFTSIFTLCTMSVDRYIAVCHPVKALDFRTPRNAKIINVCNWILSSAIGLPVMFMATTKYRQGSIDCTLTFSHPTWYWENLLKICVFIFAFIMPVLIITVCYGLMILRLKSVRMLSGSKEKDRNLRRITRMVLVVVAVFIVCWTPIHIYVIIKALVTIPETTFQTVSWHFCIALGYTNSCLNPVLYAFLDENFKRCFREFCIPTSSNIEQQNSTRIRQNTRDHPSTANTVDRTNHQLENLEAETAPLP
endpointLabel: IC50 (nM)

[[record]]
compound = "C=CCN1CCC23c4c5ccc(OC(=O)/C=C/C=C/C)c4OC2C(=O)CCC3(O)C1C5 (stereo not shown) [NX90, 3-hexadienoate derivative of naloxone]"
unitofmeasurement = "nM"
obsvalue = 137

